# Protocol description: In Vitro Microsome Stability Assay (monkey)
# Type: in vitro ADME
# Test settings: monkey liver microsomes, 30 min w/ NADPH
Recorded endpoint: Liver Microsome Stability-% Left after 30 min w/ NADPH (%) Monkey

# Compound, Display unit, Observed result
data = [
    ("C[C@H]1CN(S(=O)(=O)c2ccc(N(C)C)cc2)CCCN(CCC2CCCC2)CCCN(S(=O)(=O)N2CCc3cc(Cl)ccc3C2)C1 [A120]", "%", 16.3),
]

I. COc1cc(F)ccc1N1CCN(S(=O)(=O)N2CCCN([C@@H](C)C3CCCCC3)CCCN(S(=O)(=O)c3ccc(N(C)C)cc3)C[C@H](C)C2)C[C@H]1C [A207]
II. Cc1cc(F)ccc1N1CC2(C1)CN(S(=O)(=O)N1CCCN(CC3CCCCC3)CCCN(S(=O)(=O)c3ccc(N(C)C)cc3)C[C@H](C)C1)C2 [A161]
III. CC[C@H]1CN(S(=O)(=O)c2ccc(N(C)C)cc2)CCCN(CC2CCCCC2)CCCN(S(=O)(=O)N2CCc3cc(Cl)ccc3C2)C1 [A182]
IV. CN(C)c1ccc(S(=O)(=O)N2CCCN(CC3CCCCC3)CCCN(S(=O)(=O)N3CCc4cc(Cl)ccc4C3)C[C@H]3CC[C@@H]32)cc1 [B22]
V. COc1cccc(N2CCN(S(=O)(=O)N3CCCN(CC4CCCCC4)CCCN(S(=O)(=O)c4ccc(N(C)C)cc4)C[C@H](C)C3)CC2)c1 [A201]
# sort list by recorded Liver Microsome Stability-% Left after 30 min w/ NADPH (%) Monkey, greatest to least Please write the labels in the order that was asked for.
I, III, V, II, IV

* * *

# Protocol description: In Vitro Microsome Stability Assay (human)
# Assay type: in vitro ADME
# Test settings: human liver microsomes, 30 min w/ NADPH
Structures can show the parent of a compound that is named as a salt.
Recorded endpoint: Liver Microsome Stability-% Left after 30 min w/ NADPH (%) Human

# Compound, Observed result
records = [
    ("Cc1cc(F)ccc1N1CCN(S(=O)(=O)N2CCCN(CC3CCCCC3)CCCN(S(=O)(=O)c3ccc(N(C)C)cc3)C[C@H](C)C2)[C@@H](C)C1", 70.5),
]

I. CN(C)c1ccc(S(=O)(=O)N2CCCCN(S(=O)(=O)N3CCC(c4ccccc4)CC3)CCCN(CC3CCCCC3)CCC2)cc1
II. C[C@H]1CN(S(=O)(=O)c2ccc(N(C)C)cc2)CCCN(CC2CCC2)CCCN(S(=O)(=O)N2CCc3cc(Cl)ccc3C2)C1
// pick larger Liver Microsome Stability-% Left after 30 min w/ NADPH (%) Human from pair: I vs II Label of pick, please.
II

1. C=C1CN(S(=O)(=O)c2ccc(C)cc2)CCCN(CC2CCCCC2)CCC(C)N(S(=O)(=O)c2ccc(C)cc2)C1 (centres unmarked) [B1, hydrochloride]
2. C[C@H]1CN(S(=O)(=O)c2ccc(N(C)C)cc2)CCCN(CC2CCCCC2)CCCN(S(=O)(=O)N2CCN(C(=O)c3ccccc3)CC2)C1
Between the entries labelled 1 and 2 , which has a larger Liver Microsome Stability-% Left after 30 min w/ NADPH (%) Human value on record? Which one? Tell me its label.
2
(2: 0.22%, 1: 0.04%)

* * *

# Protocol description: In Vitro Microsome Stability Assay (monkey)
# Type: in vitro ADME
# Test settings: monkey, 30 min, NADPH
Counter-ions that a name gives are not always drawn.
Recorded endpoint: Liver Microsome Stability-% Left after 30 min w/ NADPH (%) Monkey

# Molecule, Display unit, Observed result
data = [
    ("C=C1CN(S(=O)(=O)c2ccc(C)cc2)CCCN(CC2CCCCC2)CCCN(S(=O)(=O)C2CCCCC2)C1 [A8]", "%", 0.19),
    ("C=C1CN(S(=O)(=O)c2ccc(C)cc2)CCCN(C(=O)OCCC)CCCN(S(=O)(=O)c2ccc(N(C)C)cc2)C1", "%", 0.22),
    ("C=C1CN(S(=O)(=O)c2ccc(C)cc2)CCCN(CC2CCC(C)(C)CC2)CCCN(S(=O)(=O)c2ccc(N(C)C)cc2)C1 [A10, hydrochloride]", "%", 0.14),
    ("C=C1CN(S(=O)(=O)c2ccc(N(C)C)cc2)CCCN(CC2CCCCC2)CCCN(S(=O)(=O)N2CC=C(C3=CCCC3)CC2)C1", "%", 27.6),
    ("COC1CCN(S(=O)(=O)N2CCCN(CC3CCCCC3)CCCN(S(=O)(=O)c3ccc(N(C)C)cc3)CC3(CC3)C2)CC1", "%", 2.07),
    ("C=C1CN(S(=O)(=O)c2ccc(N(C)C)cc2)CCCN(CC2CCCCC2)CCCN(S(=O)(=O)N2CCN(c3ccccc3)CC2)C1", "%", 1.54),
]

a. C=C1CN(S(=O)(=O)c2ccc(N(C)C)cc2)CCCN(CC2CCCCC2)CCCN(S(=O)(=O)N2CCN(c3ccccc3)[C@H](C)C2)C1
b. C=C1CN(S(=O)(=O)c2ccc(N(C)C)cc2)CCCN(CC2CCCCC2)CCCN(S(=O)(=O)N2CCC(c3nc4ccccc4o3)CC2)C1
# min-compare on Liver Microsome Stability-% Left after 30 min w/ NADPH (%) Monkey between a and b Your answer should be the label attached to the chosen record.
a
(a: 1.44%, b: 2.56%)

a. C[C@H]1CN(S(=O)(=O)c2ccc(N(C)C)cc2)CCCN(CC2CCCCC2)CCCN(S(=O)(=O)N2CCc3cc(Cl)ccc3C2)C1
b. CN(C)c1ccc(S(=O)(=O)N2CCCN(CC3CCCCC3)CCCN(S(=O)(=O)N3CCCCC3)CC3(CC3)C2)c(F)c1
c. C=C1CN(S(=O)(=O)c2ccc(N(C)C)cc2)CCCN(CC2CCCCC2)CCCN(S(=O)(=O)N2CCc3nc(Cl)ccc3C2)C1
Arrange the 3 molecules by rising Liver Microsome Stability-% Left after 30 min w/ NADPH (%) Monkey, starting with the smallest. List the labels in the requested order.
b, c, a

1. C=C1CN(S(=O)(=O)c2ccc(N(C)C)cc2)CCCN(CC2CCCCC2)CCCN(S(=O)(=O)N2CCc3ccc(Cl)cc3C2)C1
2. CN(C)c1ccc(S(=O)(=O)N2CCCN(CC3CCCCC3)CCCN(S(=O)(=O)N3CCCC3)CC3(CC3)C2)cc1
Which entry shows the lesser value of Liver Microsome Stability-% Left after 30 min w/ NADPH (%) Monkey here, 1 or 2 ? Respond with the label that goes with your answer.
2

This collection of values is drawn from patent US11578055B2.
